Test system: C33A
ASSAY_INFO: Primary qHTS to identify gynecologic anti-cancer compounds using libraries of approved drugs and bioactive compounds (AID 1345084); further: on the % scale 0 is the no-effect control and ±100 the full control effect; nearly all actives have a fitted effect of over 55% in size
CONDITION_NOTES: Gynecologic cancer cell panel viability, ATPlite luminescence, 48 h; series mostly up to 57.5 µM
Records with an inconclusive call do not appear. Calls of active or inactive are those of the source. The call rests on the fitted dose curve; in most records, active means well fitted cell-killing curve with a large enough effect; inconclusive means small, poorly fitted or top-dose-only effect, or effect the other way; inactive means flat fitted curve, though single readings scatter.
OBSERVABLE: activity change, negative = cytotoxicity

>>> value_reported("OCc1ccc(O[C@@H]2O[C@H](CO)[C@@H](O)[C@H](O)[C@H]2O)cc1")
"inactive"
>>> value_reported("CN1CCC(Nc2nc(Nc3ccc(Oc4ccccc4)cc3)c3c(=O)[nH]cc(Br)c3n2)CC1")
"inactive"
>>> value_reported("CC1C(=O)OCC2=CCN3CCC(OC(=O)C(C)(O)C1(C)O)C23 (stereo not drawn)")
"inactive"
>>> value_reported("C=CC(C)(C)C12C=C(OC)C(=O)N3C(C(C)C)C(=O)NC31N(OC)c1ccccc12 (stereo not drawn)")
"inactive"
>>> value_reported("CC(C)S(=O)(=O)NC[C@H](C)c1ccc(NC(=O)c2cc(F)cc(F)c2)cc1")
"inactive"
>>> value_reported("C=C1CCC2C(C)(C)C(O)CCC2(C)C1CCC(C)CCO (stereo not drawn)")
"inactive"
>>> value_reported("COc1cc([C@H]2c3cc(O)c(OC)cc3C[C@@H](CO[C@@H]3O[C@H](CO)[C@@H](O)[C@H](O)[C@H]3O)[C@@H]2CO)ccc1O")
"inactive"
>>> value_reported("CC(=O)OC/C=C(\\C)C(CC1C(C)=C(OC(C)=O)C(=O)C2C(C)(C)C(O)CCC12C)OC(C)=O (stereo not drawn)")
"inactive"
>>> value_reported("Cc1cn(C2C=CC(CO)O2)c(=O)[nH]c1=O (stereo not drawn)")
"inactive"
>>> value_reported("CC(C)CCC1(O)C(=O)C(C)(C)C(O[C@@H]2O[C@H](CO)[C@@H](O)[C@H](O)[C@H]2O)C(C)(C)C1O (stereo partly drawn)")
"inactive"
>>> value_reported("CNCc1ccc(-c2cc(-c3nc(-c4ccc(S(=O)(=O)C(C)C)cc4)cnc3N)on2)cc1")
"inactive"
>>> value_reported("C=C[C@H]1C(O[C@@H]2O[C@H](CO)[C@@H](O)[C@H](O)[C@H]2O)OC=C2C(=O)N3CCc4c([nH]c5ccccc45)C3CC21 (stereo partly drawn)")
"inactive"
>>> value_reported("Cc1c(F)cc(C(=O)NC2CC2)cc1-c1c(F)cn2c(C(C)(C)C)nnc2c1F")
"inactive"
>>> value_reported("O=C1C=CC(O)(/C=C/C(=O)OC[C@H]2O[C@@H](Oc3ccc(O)cc3)[C@H](O)[C@@H](O)[C@@H]2O)C=C1")
"inactive"
>>> value_reported("COC(=O)C1=CO[C@@H](O[C@@H]2O[C@H](CO)[C@@H](O)[C@H](O)[C@H]2O)[C@H]2[C@@H]1C=C[C@@]21C=C([C@H](C)O)C(=O)O1")
"inactive"
>>> value_reported("C=C[C@H]1[C@H](O[C@@H]2O[C@H](CO)[C@@H](O)[C@H](O)[C@H]2O)OC=C(C(=O)OC)[C@H]1CCOC(=O)c1cc(O)c(O)c(O)c1")
"inactive"
>>> value_reported("OC[C@H]1O[C@@H](O[C@H]2[C@H](OCCc3ccccc3)O[C@H](CO)[C@@H](O)[C@@H]2O)[C@H](O)[C@@H](O)[C@@H]1O")
"inactive"
>>> value_reported("CC(C)C1=CC2C(CC[C@]2(C)O)[C@](C)(O)CC1 (stereo partly drawn)")
"inactive"
>>> value_reported("Cn1nc(C(C)(C)C)cc1C(=O)NC(Cc1cccc(Cl)c1)C(=O)NCC#N (stereo not drawn)")
"inactive"
>>> value_reported("CN=C(N)NCCCCC/C=C(/C)CC(C)C1OC(=O)C(C)C(O)/C=C/C(C)C(O)CC(O)C(C)C(O)CCC(C)C(O)CC2(O)OC(CC(OC(=O)CC(=O)O)CC(O)CC(O)C(C)C(O)/C(C)=C/CCC1C)CC(O)C2O (stereo not drawn)")
"11.4% [at 11.6 µM] (inactive)"
>>> value_reported("Cc1cc2c(c(=O)[nH]1)OC(C(O)CC(C)C)O2 (stereo not drawn)")
"inactive"
>>> value_reported("CC(C)(O)CC(CO)NC(=O)CC(O)CC(=O)Cc1ccccc1 (stereo not drawn)")
"inactive"
>>> value_reported("COc1ccc(-c2nc(-c3ccc(-c4cccc(Cl)c4)o3)[nH]c2-c2ccc(OC)cc2)cc1")
"inactive"
>>> value_reported("C=CC1C(OC2OC(CO)C(O)C(O)C2O)OC=C(C(=O)OC)C1CC(=O)OCC1C(C)C(O)CC1C(CO)COC(=O)CC1C(C(=O)O)=COC(OC2OC(CO)C(O)C(O)C2O)/C1=C\\C (stereo not drawn)")
"0.0118% [at 11.6 µM] (inactive)"
>>> value_reported("CC1(C)CC2C=C(C(=O)O)C3COC(=O)C(O)(CO)C23C1 (stereo not drawn)")
"inactive"
>>> value_reported("C/C=C1\\[C@H](O[C@@H]2O[C@H](CO)[C@@H](O)[C@H](O)[C@H]2O)OC=C(C(=O)OC)[C@H]1CC(=O)O")
"inactive"
>>> value_reported("CC1(C)CC2=C3C=CC4C5(C)CCC(O)C(C)(C)C5CCC4(C)C3(C)CCC2(C)C(O)C1 (stereo not drawn)")
"inactive"
>>> value_reported("COC(=O)C12CCC(C)C(C)C1C1=CCC3C4(C)CCC(OC(C)=O)C(C)(C)C4CCC3(C)C1(C)CC2 (stereo not drawn)")
"inactive"
>>> value_reported("CC/C=C\\CCO[C@@H]1O[C@H](CO[C@@H]2OC[C@H](O)[C@H](O)[C@H]2O)[C@@H](O)[C@H](O)[C@H]1O")
"inactive"
>>> value_reported("C[S+](CC[C@H](N)C(=O)[O-])C[C@H]1O[C@@H](n2cnc3c(N)ncnc32)[C@H](O)[C@@H]1O (stereo partly drawn)")
"inactive"
>>> value_reported("O=C(O)Cc1ccc2oc(-c3ccc(NC(=O)/C=C/c4ccc(Br)cc4)c(F)c3)nc2c1")
"inactive"
>>> value_reported("CC(=O)O[C@H]1C[C@@]2(C)[C@@H](CC[C@H]3[C@@]4(C)C=CC(=O)[C@@H](C)[C@@H]4[C@H](O)C(=O)[C@@]32C)/C1=C(/CCC=C(C)C)C(=O)O")
"inactive"
>>> value_reported("CC(O)/C=C/C1OC(=O)CC1Nc1ccc(C(=O)O)cc1 (stereo not drawn)")
"inactive"

src = PubChem BioAssay (NCATS)
